- experimental-system: RORγt (Homo sapiens, UniProt P51449)
- Construct: […]
- Sequence (P51449 269-508 limits assumed): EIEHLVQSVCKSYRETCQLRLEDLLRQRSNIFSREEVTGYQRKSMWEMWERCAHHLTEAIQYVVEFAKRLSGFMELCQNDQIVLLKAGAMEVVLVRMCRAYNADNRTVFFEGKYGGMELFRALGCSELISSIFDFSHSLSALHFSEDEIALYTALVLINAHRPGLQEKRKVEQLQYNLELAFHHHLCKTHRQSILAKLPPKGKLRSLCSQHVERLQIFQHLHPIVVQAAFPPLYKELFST
- test-summary: Fluorescence resonance energy transfer (FRET) test, inhibitory activity of RORγt
- Type: biochemical
- assay-context: FRET, B-RORγt LBD / Biotin-SRC1; read-out: IC50
pIC50: −log10 of the molar value.
endpoint: pIC50

1: CCS(=O)(=O)c1ccc([C@H](CCC(=O)O)NC(=O)c2ccc(N3C[C@@H](Oc4ccc(C(F)(F)F)cc4)C[C@H]3COC(F)F)cc2)cc1 [Example 105]
2: CCS(=O)(=O)c1ccc([C@H](COCC(=O)O)NC(=O)c2ccc(N3C[C@@H](Oc4ccc(-n5cccn5)cn4)C[C@H]3COC(F)F)nc2)cc1 [Example 175]
Which has the smaller recorded pIC50, 1 or 2 ? When you have decided, please share the label of that item.
2
(2: 7.41, 1: 8.15)

a: [2H]C([2H])([2H])OC[C@@H]1C[C@H](Oc2ccc(C(F)(F)F)cc2)CN1c1ccc(C(=O)N[C@@H](CC#N)c2ccc(S(=O)(=O)CC)cc2)cc1 [Example 151]
b: CCS(=O)(=O)c1ccc([C@H](CC#N)NC(=O)c2ccc(N3C[C@@H](Oc4ccc(OC(F)(F)F)cn4)C[C@H]3COC(F)F)nc2)cc1 [Example 18]
Lowest pIC50? choose a or b // respond with label for picked entry
b
(b: 7.59, a: 8.06)

P: CCS(=O)(=O)c1ccc([C@H](COC(N)=O)NC(=O)c2cnc(N3CCCC3c3cccc(F)c3)nc2)cc1 (stereo partly drawn) [Example 177]
Q: CCS(=O)(=O)c1ccc([C@H](CC#N)NC(=O)c2cnc(N3CC(Oc4ccc(C(F)(F)F)cc4)C[C@H]3COC(F)F)c(F)c2)cc1 (stereo in doubt) [Example 50]
Of the two listed items, which has the higher pIC50? First: P Second: Q To answer, give the label that identifies your chosen option.
Q

a: CCS(=O)(=O)c1ccc([C@H](CC#N)NC(=O)c2ccc(N3C[C@@H](Oc4ccc(OC(C)C)nc4)C[C@H]3COC(F)F)cc2)cc1 [Example 20]
b: CCS(=O)(=O)c1ccc([C@H](CC#N)NC(=O)c2ccc(N3C[C@@H](Oc4ccc(-n5ccc(C)n5)cc4)C[C@H]3COC(F)F)cc2)cc1 [Example 163]
Between a and b , which one shows the larger pIC50 value? Reply briefly: the label of your chosen item.
b

I: CCS(=O)(=O)c1ccc([C@H](CC#N)NC(=O)c2ccc(N3C[C@H](N4CCC(C(F)(F)F)CC4)CC[C@H]3COC(F)F)cc2)cc1 [Example 117-2]
II: CCS(=O)(=O)c1ccc([C@H](CC#N)NC(=O)c2ccc(N3C[C@H](N(C)CC4CCC(F)(F)CC4)C[C@H]3COC(F)F)cc2)cc1 [Example 32]
III: CCS(=O)(=O)c1ccc([C@H](CC#N)NC(=O)c2ccc(N3C[C@@H](Oc4ccc(C(F)(F)F)cc4)C[C@H]3CCOC(F)F)cc2)cc1 [Example 75]
With regard to pIC50, arrange the entries in ascending order, please. A complete answer lists every label in the requested sequence.
II, I, III

a: CCS(=O)(=O)c1ccc([C@H](CC(=O)NC)NC(=O)c2ccc(N3C[C@@H](Oc4ccc(C(F)(F)F)cc4)C[C@H]3COC(F)F)cc2)cc1 [Example 94]
b: CCS(=O)(=O)c1ccc([C@H](CC#N)NC(=O)c2ccc(N3C[C@@H](Oc4ccc(OC)nc4)C[C@H]3COC(F)F)cc2)cc1 [Example 10]
Of the pair a and b , name the member with the lesser recorded pIC50. State your choice using its label.
a
(a: 7.51, b: 7.72)

These measurements were taken from patent US20230121086A1.
